The reported measurements were obtained from ChEMBL document CHEMBL5537165.

Listing of entries alongside the reported pIC50.
Molecular target: UniProtKB F5B4I0
Sequence (F5B4I0 whole entry): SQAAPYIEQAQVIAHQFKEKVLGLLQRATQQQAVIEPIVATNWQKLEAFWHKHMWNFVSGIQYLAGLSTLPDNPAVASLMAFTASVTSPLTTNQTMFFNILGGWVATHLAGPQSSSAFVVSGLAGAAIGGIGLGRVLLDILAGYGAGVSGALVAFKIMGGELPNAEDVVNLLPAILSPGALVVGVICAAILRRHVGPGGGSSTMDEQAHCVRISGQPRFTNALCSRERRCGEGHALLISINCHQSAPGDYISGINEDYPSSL
Experiment: Inhibition of full length Hepatitis C virus genotype 1b NS4B expressed in Escherichia coli
Note: pIC50 values are expressed as the negative base-10 logarithm of concentration in M.

Look over these answered cases.
C=C[C@@H]1C[C@]1(NC(=O)[C@@H]1C[C@@H]2CN1C(=O)[C@H](C(C)(C)C)NC(=O)O[C@@H]1C[C@H]1CCCCCc1nc3ccc(OC)cc3cc1O2)C(=O)NS(=O)(=O)C1CC1	7.89
C=C[C@@H]1C[C@]1(NC(=O)[C@@H]1C[C@@H]2CN1C(=O)[C@H](C(C)(C)C)NC(=O)OCCC/C=C/c1ccc3ccnc(c3c1)O2)C(=O)NS(=O)(=O)C1CC1	6.68
C=C[C@@H]1C[C@]1(NC(=O)[C@@H]1C[C@@H](Oc2cc(-c3ccccc3)nc3cc(OC)ccc23)CN1C(=O)[C@@H](NC(=O)OC1CCCC1)C(C)(C)C)C(=O)O	7.85

We next turn to a different compound, shown below.
Please tell me: pIC50 of `C=C[C@H]1C[C@]1(NC(=O)[C@@H]1C[C@@H]2CN1C(=O)[C@H](C(C)(C)C)NC(=O)OCCC/C=C/c1cccc3c1CN(C3)C(=O)O2)C(=O)NS(=O)(=O)C1CC1` , system UniProtKB F5B4I0?
8.15
